Value source: patent US9957251B2

target: CDK8/CycC (Homo sapiens, UniProt P49336); construct: purchased Carna Biosciences; assay: CDK8 inhibitory activity (TR-FRET, Kinase Tracer-236 displacement); type: binding; conditions: 1 μM of the test compound; read-out: Percent inhibition of CDK8 activity (%)
Sequence (P49336 whole entry): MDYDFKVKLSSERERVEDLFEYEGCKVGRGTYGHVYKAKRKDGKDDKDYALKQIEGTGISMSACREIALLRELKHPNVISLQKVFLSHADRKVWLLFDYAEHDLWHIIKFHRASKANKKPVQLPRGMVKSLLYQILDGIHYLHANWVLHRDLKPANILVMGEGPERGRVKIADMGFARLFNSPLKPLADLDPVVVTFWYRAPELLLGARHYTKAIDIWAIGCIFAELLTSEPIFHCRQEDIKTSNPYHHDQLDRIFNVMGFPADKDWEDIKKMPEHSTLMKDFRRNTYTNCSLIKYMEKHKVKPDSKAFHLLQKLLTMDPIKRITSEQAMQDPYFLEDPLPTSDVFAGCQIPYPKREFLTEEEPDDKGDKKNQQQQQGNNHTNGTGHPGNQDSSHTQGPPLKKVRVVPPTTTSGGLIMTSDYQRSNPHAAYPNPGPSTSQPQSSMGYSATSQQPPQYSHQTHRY
Sequence (P24863 whole entry partner): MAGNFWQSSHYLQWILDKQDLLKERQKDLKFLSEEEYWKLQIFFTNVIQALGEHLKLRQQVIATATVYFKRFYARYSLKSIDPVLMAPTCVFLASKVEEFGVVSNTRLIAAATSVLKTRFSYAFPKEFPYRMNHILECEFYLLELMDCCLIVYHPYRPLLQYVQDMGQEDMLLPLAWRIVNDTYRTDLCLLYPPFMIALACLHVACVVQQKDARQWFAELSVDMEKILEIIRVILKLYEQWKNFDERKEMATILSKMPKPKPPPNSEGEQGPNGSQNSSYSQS
Please provide measured inhibition at 1 µM for the entries that follow.
Answers are plain numbers, in %.

Dear colleague, could you send me inhibition at 1 µM for each of the items below? Thanks.
1. CCN1CCc2cc(NC(=O)/C=C/c3cnccc3-c3cnn(C)c3)ccc2C1
2. Cn1cc(-c2ccncc2/C=C/C(=O)Nc2ccc(CN3CCN4CCCC4C3)cc2)cn1 (centres unmarked)
3. CC(=O)n1cc(-c2ccncc2/C=C/C(=O)Nc2ccc(CN3CCOCC3)cc2)cn1

Response:
[96, 100, 96]

Would you mind listing inhibition at 1 µM for each of the following compounds?
1. Cn1cc(-c2ccncc2/C=C/C(=O)Nc2cccc(-c3cccnc3)c2)cn1
2. Cc1nn(C)cc1-c1ccncc1/C=C/C(=O)Nc1ccc(CCc2nnco2)cc1
3. Cn1cc(-c2ccncc2/C=C/C(=O)Nc2ccc(CN3CC(F)(F)C3)cc2)cn1
4. COC1CN(Cc2ccc(NC(=O)/C=C/c3cnccc3-c3cnn(C4CC4)c3)cc2)C1
5. Cc1cc(NC(=O)/C=C/c2cnccc2-c2cnn(C)c2)ccc1CN1CCOCC1
6. COc1ccc(-c2ccncc2/C=C/C(=O)Nc2ccc(CN3CCOCC3)cc2)s1
7. COc1ccsc1-c1ccncc1/C=C/C(=O)Nc1ccc(CN2CCOCC2)cc1

Response:
1: 84; 2: 100; 3: 99; 4: 101; 5: 96; 6: 93; 7: 97
